# target.system: Nuclear receptor subfamily 0 group B member 1 (Homo sapiens)
# method.summary: DAX1 (NR0B1) inhibitors relieving SF-1 repression, confirmation, cell-based, luminescence, HEK293T, full-length DAX-1, SF-1 activated StAR promoter (AID 652134);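 further: 0% = DAX-1 cells with DMSO and 100% = no DAX-1 control cells with DMSO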
# condition.set: HEK293T StAR-promoter luciferase reporter, SF-1/DAX-1 repression; at 6.8 µM; stronger effect = higher value
Among all 2,400 compounds or so, about 2,100 (88%) were called active. So high a share suggests a set chosen from earlier hits. A selection follows.
Listing of entries alongside the reported inhibition.
# number only, unit % dropped from output

# example entries with known answers
{"columns": ["compound", "quantity", "numeric.readout"],
 "data": [
  ["c1ccc2[nH]c(-c3nc4ccccc4[nH]3)nc2c1", "inhibition", 11.3],
  ["O=C(CSc1cccc[n+]1[O-])c1ccc(-c2ccccc2)cc1", "inhibition", 3.72],
  ["O=C(c1cnn2ccccc12)N1CCc2ccccc21", "inhibition", 9.73],
  ["COc1cc(C2c3cc4c(cc3C(O)C3COC(=O)C23)OCO4)cc(OC)c1OC (configuration not stated)", "inhibition", 19.5],
  ["COc1ccc2nc(-c3ccccn3)ccc2c1", "inhibition", 12.2]
]}

Item "CC(C)Cc1cc(C(=O)NCCc2ccccc2)no1" ; assay system Nuclear receptor subfamily 0 group B member 1 (Homo sapiens); inhibition reported as 8.87

Param item: "Brc1ccc2nc(N3CCCC3)sc2c1" ; param system: Nuclear receptor subfamily 0 group B member 1 (Homo sapiens); output inhibition: 7.35

Bench note, Nuclear receptor subfamily 0 group B member 1 (Homo sapiens): entry "CCOc1ccc(-c2nnc(-c3ccco3)o2)cc1" , its inhibition = 9.81

Nuclear receptor subfamily 0 group B member 1 (Homo sapiens) inhibition of "Nc1c(C(=O)Nc2ccc3c(c2)OCCO3)nnn1Cc1ccccc1" is 12.5

inhibition of "COc1ccc2nc(SCc3ccccc3)nc(C)c2c1" , assay on Nuclear receptor subfamily 0 group B member 1 (Homo sapiens), is 20.3

// returns inhibition for "Cc1nc2cc(NC(=O)Nc3cccc(F)c3)ccc2n1C" with Nuclear receptor subfamily 0 group B member 1 (Homo sapiens); value = 15.5

Bench note, Nuclear receptor subfamily 0 group B member 1 (Homo sapiens): entry "COC(=O)c1sc(NC(=O)c2ccc(OC)cc2OC)nc1C" , its inhibition = 13.9

====

# target.system: Nuclear receptor subfamily 0 group B member 1 (Homo sapiens) (UniProt P51843)
# Sequence (P51843 whole entry, looked up): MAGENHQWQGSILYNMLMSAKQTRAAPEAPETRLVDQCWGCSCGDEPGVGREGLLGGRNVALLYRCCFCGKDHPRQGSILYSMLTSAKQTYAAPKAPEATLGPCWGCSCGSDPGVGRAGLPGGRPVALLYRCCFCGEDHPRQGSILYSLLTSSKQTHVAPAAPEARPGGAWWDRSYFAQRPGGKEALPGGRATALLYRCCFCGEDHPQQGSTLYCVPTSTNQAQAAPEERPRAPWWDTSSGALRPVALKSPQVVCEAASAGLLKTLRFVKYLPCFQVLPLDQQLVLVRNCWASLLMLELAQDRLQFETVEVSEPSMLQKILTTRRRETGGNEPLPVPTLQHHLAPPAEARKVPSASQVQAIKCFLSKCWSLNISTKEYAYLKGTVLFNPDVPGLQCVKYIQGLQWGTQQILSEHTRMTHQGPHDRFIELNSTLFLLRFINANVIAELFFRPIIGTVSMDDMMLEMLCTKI
# method.summary: DAX1 (NR0B1) inhibitors relieving SF-1 repression, confirmation, cell-based, luminescence, HEK293T, full-length DAX-1, SF-1 activated StAR promoter (AID 652134);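 further: 0% = DAX-1 cells with DMSO and 100% = no DAX-1 control cells with DMSO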
# condition.set: HEK293T StAR-promoter luciferase reporter, SF-1/DAX-1 repression; at 6.8 µM
In all, about 2,400 compounds went through this assay and about 2,100 (88%) were called active.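 How the source made its calls: active means inhibition above the average of every tested compound plus 3 SD (cut at about 3.8% in these data); inactive means the rest.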 The set was probably picked from earlier hits. The list is a sample of the results.
Pick one and only one: 1 for active, -1 for inactive

// known answers, use as guide
{"columns": ["compound", "answer.label"],
 "data": [
  ["CCN(CC(=O)Nc1c(F)cccc1F)C(=O)c1cnc(C)cn1", -1],
  ["Cc1ccc(-n2cc3ccc([N+](=O)[O-])cc3n2)cc1", 1],
  ["CC1CCN(C(=O)COC(=O)c2cc(=O)[nH]c3ccccc23)CC1", 1],
  ["Cc1cccc(NC(=O)/C=C/c2ccc3c(c2)OCO3)n1", 1],
  ["O=[N+]([O-])c1ccc2oc(-c3cccc(O)c3)nc2c1", 1]
]}

For this compound, state the assay outcome: "O=C(Nc1ncccc1O)c1ccc(S(=O)(=O)N2CCCCCC2)cc1"
1

Record request — test call for "O=C(NCCc1ccc(F)cc1)c1ccc2nccnc2c1"
1

Each compound tested received a call. Report the one for "COc1cc(/C=N/O)ccc1OCc1ccc([N+](=O)[O-])cc1" .
1

I would be grateful if you could indicate the recorded call for "Cc1csc(SCC(=O)Nc2sccc2C#N)n1" .
1

Which result was noted for this compound in the test: "COc1cccc(/C=C/C(=O)Nc2ccc3c(c2)OCCO3)c1"
1

# fetch the recorded call for "O=C(Nc1ncccc1O)c1ccc(C(=O)c2ccccc2)cc1" here
1

Which outcome did this test record for the compound "CC(=O)Nc1cccc(C(=O)OCC(=O)c2ccc3c(c2)OCO3)c1" ?
1

Recorded test call requested for "COC(=O)Nc1nc2ccc(C(=O)C3CC3)cc2[nH]1"
1

Recorded call for CC(Oc1ccccc1[N+](=O)[O-])C(=O)N/N=C/c1ccoc1 (centres undefined) ?
-1
